# system.tested: human GlyT1c transporter (Homo sapiens, UniProt P48067)
# Construct: expressed in transfected cells; host or cells: CHO cells (recombinant; line hGlyT1c_5_CHO is named for the uptake assay)
# Sequence (P48067 whole entry): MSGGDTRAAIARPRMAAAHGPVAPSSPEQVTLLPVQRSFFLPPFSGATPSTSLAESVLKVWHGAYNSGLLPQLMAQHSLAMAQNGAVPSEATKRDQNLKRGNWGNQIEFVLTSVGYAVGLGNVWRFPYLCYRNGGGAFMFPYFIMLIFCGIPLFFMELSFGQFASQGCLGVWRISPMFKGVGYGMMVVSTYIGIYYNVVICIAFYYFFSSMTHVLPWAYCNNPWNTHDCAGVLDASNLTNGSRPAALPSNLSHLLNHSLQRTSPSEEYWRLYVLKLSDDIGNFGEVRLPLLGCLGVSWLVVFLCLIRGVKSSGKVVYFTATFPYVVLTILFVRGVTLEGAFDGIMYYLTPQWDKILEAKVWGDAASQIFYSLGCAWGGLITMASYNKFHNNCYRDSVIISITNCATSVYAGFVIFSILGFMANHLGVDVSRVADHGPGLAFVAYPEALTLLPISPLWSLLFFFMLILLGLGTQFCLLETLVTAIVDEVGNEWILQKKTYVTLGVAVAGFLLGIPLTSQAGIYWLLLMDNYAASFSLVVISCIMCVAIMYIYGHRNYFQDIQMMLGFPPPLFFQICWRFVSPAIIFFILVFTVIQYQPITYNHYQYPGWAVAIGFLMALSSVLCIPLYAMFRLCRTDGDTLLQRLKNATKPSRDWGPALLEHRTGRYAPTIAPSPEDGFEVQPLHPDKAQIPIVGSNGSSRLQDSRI
# assay.notes: Radioligand binding assay using recombinant CHO cell membranes expressing human GlyT1
# setup.conditions: radioligand binding to human GlyT1c transporter-expressing membranes
Overview of recorded Ki for various compounds

Examples with answers:
compound	Ki
Cn1cnc(S(=O)(=O)N2C[C@@H](C(=O)NCc3ccccc3)[C@H](c3ccc(F)cc3)C2)c1 (relative stereo)	≤ 1000 nM
O=C1Cc2cc(S(=O)(=O)N3CC(Nc4ccc(F)c(F)c4)C(c4ccccc4)C3)ccc2N1 (stereo not shown)	≤ 10000 nM
Cn1cnc(S(=O)(=O)N2C[C@H](Nc3cccc(OCC(F)(F)F)c3)[C@@H](c3ccc(F)cc3)C2)c1	≤ 10 nM
CCCCCN(CCCCC)[C@@H]1CN(S(=O)(=O)c2cn(C)cn2)C[C@H]1c1ncccc1F (relative stereo)	≤ 1000 nM
Cc1cc(N[C@@H]2CN(S(=O)(=O)c3cn(C)cn3)C[C@H]2c2ncccc2F)ccc1F (relative stereo)	≤ 1000 nM

Sample Cc1nc(Cl)cc(N[C@H]2CN(S(=O)(=O)c3cn(C)cn3)C[C@@H]2c2ccc(F)cc2)n1 ; Ki observed: ≤ 1000 nM

Sample Cn1cnc(S(=O)(=O)N2C[C@@H](Nc3cccc(F)c3F)[C@H](c3ccccc3)C2)c1 (relative stereo) ; Ki observed: ≤ 1000 nM

====

# system.tested: human GlyT1c transporter (Homo sapiens, UniProt P48067)
# Construct: expressed in transfected cells; host or cells: CHO cells (recombinant; line hGlyT1c_5_CHO is named for the uptake assay)
# assay.notes: Radioligand binding assay using recombinant CHO cell membranes expressing human GlyT1
# setup.conditions: radioligand binding to human GlyT1c transporter-expressing membranes
quantity.name: Ki

compound	Ki
Cc1cc(S(=O)(=O)N2CC(Nc3ccc(F)c(F)c3)C(c3ccccc3)C2)c(C)s1 (stereo not shown)	≤ 10 µM
Cc1cccc(N[C@@H]2CN(S(=O)(=O)c3cn(C)cn3)C[C@H]2c2ccc(F)cc2)c1 (relative stereo)	≤ 0.01 µM
Cn1cnc(S(=O)(=O)N2C[C@@H](Nc3ccc(C#N)cc3)[C@H](c3ccccc3)C2)c1 (relative stereo)	≤ 10 µM
Cn1cnc(S(=O)(=O)N2C[C@@H](Nc3cccc(C(F)(F)F)n3)[C@H](c3cccc(F)c3)C2)c1 (relative stereo)	≤ 10 µM
Cn1cnc(S(=O)(=O)N2C[C@H](NCc3sccc3Cl)[C@@H](c3ccccc3)C2)c1	≤ 1 µM

Sample Cn1cnc(S(=O)(=O)N2C[C@H](NC(=O)C3(C(F)(F)F)CC3)[C@@H](c3ccc(F)cc3)C2)c1 ; Ki observed: ≥ 10 µM

Sample Cn1cnc(S(=O)(=O)N2C[C@H](Nc3cc(F)ccn3)[C@@H](c3ccccc3)C2)c1 ; Ki observed: ≤ 1 µM

====

Overview of recorded pKi for various compounds
# system.tested: human GlyT1c transporter (Homo sapiens, UniProt P48067)
# Construct: expressed in transfected cells; host or cells: CHO cells (recombinant; line hGlyT1c_5_CHO is named for the uptake assay)
# assay.notes: Radioligand binding assay using recombinant CHO cell membranes expressing human GlyT1
# setup.conditions: radioligand binding to human GlyT1c transporter-expressing membranes
pKi: −log10 of the molar value.

Examples with answers:
compound	pKi
Cn1cnc(S(=O)(=O)N2C[C@H](NC(=O)Nc3cccc(F)c3)[C@@H](c3ccc(F)cc3)C2)c1	≥ 6.00
CC(C)CCCCCNC(=O)[C@@H]1CN(S(=O)(=O)c2cn(C)cn2)C[C@H]1c1ccc(F)cc1 (relative stereo)	≥ 5.00
Cn1cnc(S(=O)(=O)N2C[C@H](Nc3cc(C(F)(F)F)c(Cl)cn3)[C@@H](c3ccc(F)cc3)C2)c1	≥ 8.00

Sample Cn1cnc(S(=O)(=O)N2C[C@@H](Nc3ccc(F)cc3)[C@H](c3ccc(F)cc3)C2)c1 (relative stereo) [Example 92] ; pKi observed: ≥ 7.00

Sample CC(=O)Nc1ccc(Cl)cc1N[C@@H]1CN(S(=O)(=O)c2cn(C)cn2)C[C@H]1c1ccc(F)cc1 (relative stereo) ; pKi observed: ≥ 5.00

Sample CCCCC(F)(F)C(=O)N[C@H]1CN(S(=O)(=O)c2cn(C)cn2)C[C@@H]1c1ccc(F)cc1 ; pKi observed: ≥ 5.00

Sample Cn1cnc(S(=O)(=O)N2C[C@@H](Nc3cccc(C(C)(C)C)c3)[C@H](c3ccccc3)C2)c1 (relative stereo) ; pKi observed: ≥ 6.00

Sample Cn1cnc(S(=O)(=O)N2C[C@@H]([C@@H]3CCCOC3)[C@H](Nc3cccc(Oc4ccccc4)c3)C2)c1 (mixture of isomers) ; pKi observed: ≥ 6.00

Sample Cn1cnc(S(=O)(=O)N2C[C@@H](COc3ccc(Cl)c(C(F)(F)F)c3)[C@H](c3ccc(F)cc3)C2)c1 (relative stereo) ; pKi observed: ≥ 6.00

Sample Cc1cccc(NC(=O)[C@@H]2CN(S(=O)(=O)c3cn(C)cn3)C[C@H]2c2ccc(F)cc2)c1 (relative stereo) ; pKi observed: ≥ 6.00

Sample Cn1cnc(S(=O)(=O)N2C[C@H](NC(=O)c3cnc(Cl)cn3)[C@@H](c3ccccc3)C2)c1 ; pKi observed: ≥ 5.00

Sample Cn1cnc(S(=O)(=O)N2C[C@@H](Nc3ccc(Cl)c(Cl)c3)[C@H](c3ccccc3)C2)c1 (relative stereo) ; pKi observed: ≥ 6.00

Sample Cn1cnc(S(=O)(=O)N2CC(c3ccccc3)C(Cc3cccc(Cl)c3)C2=O)c1 (stereo not drawn) ; pKi observed: ≥ 6.00

Sample Cc1ncc(S(=O)(=O)N2CC(Nc3ccc(F)c(F)c3)C(c3ccccc3)C2)n1C (stereo not drawn) ; pKi observed: ≥ 5.00

Sample Cn1cnc(S(=O)(=O)N2C[C@H](NCC3CCC(F)(F)CC3)[C@@H](c3ccccc3)C2)c1 ; pKi observed: ≥ 6.00

Sample Cn1cnc(S(=O)(=O)N2C[C@@H](Nc3cccc(Cl)c3)[C@H](c3ccccc3Cl)C2)c1 (relative stereo) ; pKi observed: ≥ 7.00

Sample Cn1cc(S(=O)(=O)N2C[C@@H](NC(=O)c3cccc(C(F)(F)F)c3Cl)[C@H](c3ccccc3)C2)cn1 (relative stereo) ; pKi observed: ≥ 5.00

Sample Cn1cnc(S(=O)(=O)N2C[C@H](Nc3cc(OCC4CCCN4)ncn3)[C@@H](c3ccc(F)cc3)C2)c1 (stereo partly drawn) ; pKi observed: ≥ 5.00

Sample Cn1cnc(S(=O)(=O)N2C[C@H](Nc3ccc(F)cc3)[C@@H](c3ccc(F)cc3)C2)c1 ; pKi observed: ≥ 7.00

Sample Cn1cnc(S(=O)(=O)N2C[C@@H](NC(=O)c3ccccc3F)[C@H](c3ccccc3)C2)c1 (relative stereo) ; pKi observed: ≥ 5.00
